These measurements were taken from the supplement of paper PMC9732359.

Method Summary: protein stability index of a GFP-peptide fusion (yeast GPS) (PSI 1-4); higher = more stable; sorted into four equal gates, so the index is relative within each strain
Assay Conditions: san1∆
Decision: protein stability index compared against 3; not below it gives YES, below it gives NO.

Examples with answers:
{"Monomer Sequence": "GILYMGQGEQVDDVLET [RPN1]", "Assigned Label": "NO"}
{"Monomer Sequence": "LVAKFLYPIFLLDDKKL [YJR042W/NUP85]", "Assigned Label": "NO"}
{"Monomer Sequence": "ESDETTTDNNNSGNSNS [RPT1]", "Assigned Label": "NO"}

In the following, a different sequence is considered.
Query: Hi team, for VEQGYEDAFNFWFDKLV [YCG1] , is the recorded protein stability index at or above 3?
Result: YES

* * *

Method Summary: protein stability index of a GFP-peptide fusion (yeast GPS) (PSI 1-4); higher = more stable; sorted into four equal gates, so the index is relative within each strain
Assay Conditions: san1∆
Each entry gets NOT MET if its protein stability index stays under 3, and MET if its protein stability index is 3 or above.

{"Monomer Sequence": "ENGRRINELTLLVQKRF [RPS3]", "Assigned Label": "MET"}
{"Monomer Sequence": "LIDSLPGVDVSAEEQLR [SRB7]", "Assigned Label": "NOT MET"}
{"Monomer Sequence": "PEHLRKIINTHSDMASK [PRP8]", "Assigned Label": "NOT MET"}
{"Monomer Sequence": "FVDENTFQRVCQYMVAC [RPN1]", "Assigned Label": "NOT MET"}

Query: Is it the case that KFPETSYPILNESSTFL [SIN4] has protein stability index reaching or exceeding 3?
Result: NOT MET

* * *

Method Summary: protein stability index of a GFP-peptide fusion (yeast GPS) (PSI 1-4); higher = more stable; sorted into four equal gates, so the index is relative within each strain
Assay Conditions: san1∆
Threshold check on protein stability index: at or above 3 gives Satisfied, strictly below gives Not satisfied.

Please review the entries below; each comes with its answer.
{"Monomer Sequence": "AKALESLASCLRSTEYS [POP1]", "Assigned Label": "Not satisfied"}
{"Monomer Sequence": "TGMSSMSPFLRKVVKPS [SRB4]", "Assigned Label": "Not satisfied"}
{"Monomer Sequence": "RTGPKALPDAVTIIEPK [RPS3]", "Assigned Label": "Satisfied"}

Query: Identify whether the reported protein stability index of the following sequence is 3 or greater: EWQDIIHQREQELQIKR [CSE2]
Result: Satisfied

Query: Here is the next sequence: ETTLGEMAEKIDFTLLN [PRP8]
Result: Satisfied

Query: Item: INIQKKLEPKEIVRDIL [SIR4]
Result: Not satisfied

* * *

Method Summary: protein stability index of a GFP-peptide fusion (yeast GPS) (PSI 1-4); higher = more stable; sorted into four equal gates, so the index is relative within each strain
Assay Conditions: ubr1∆
Recorded protein stability index values for a group of sequences are listed next.
Please give the numeric answer without any surrounding text.

Query: Consider the sequence FEIIFPPTDTNVEESVS [POP5] and give its measured protein stability index.
Result: 3.09

Query: Next sequence up: RAQLENEIEGKNEETPQ [RPC25]
Result: 3.38

Query: // same read-out, input: LSGNSVEDVSQNAADLQ [RPL9A]
Result: 3.31

Query: Then what about the sequence VVFDSNEAPPKTSLADW [YMR153W/NUP53] ?
Result: 3.33

Query: // same read-out, input: LTLIFYDVLHDVFTINP [YML103C/NUP188]
Result: 2.55

Query: Try this sequence too: NVHGSLEPFLLMLEDTD [BRR2]
Result: 2.94

Query: Next sequence: IRKLVKNGTIVKKAVTV [RPL19A]
Result: 3.28
